Readings of koff for the listed binders
- experimental_system: T1, cynomolgus folate receptor alpha, recombinant (cynomolgus, UniProt A0A2K5U044 25-233)
- T1 construct: also called cyFOLR1; cynomolgus FRα
- T1 sequence (A0A2K5U044 entry or part of it): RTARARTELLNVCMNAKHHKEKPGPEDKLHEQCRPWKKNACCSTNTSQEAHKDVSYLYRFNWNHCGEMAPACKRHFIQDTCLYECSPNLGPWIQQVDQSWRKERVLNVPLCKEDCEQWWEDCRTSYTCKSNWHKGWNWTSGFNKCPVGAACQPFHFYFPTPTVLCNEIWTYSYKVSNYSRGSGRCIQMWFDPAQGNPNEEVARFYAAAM
- measurement_description: BLI, purified VHH
Hi! Could you send only the number? It should be in s⁻¹, unit omitted.

Would you please look over these solved cases?
P01500052: P01500001(V51R, D72E)-FLAG3-HIS6 (VHH, also called P0150052) VHH: EVQLVESGGGLVQPGGSLRLSCAASGSGFSGMIMGWYRQAPGKQRELVATRTSHGTTNYADSVKGRFTISRENAKNTVYLQMNSLRPEDTAVYYCNAHFPGIYWGKGTLVTVSS = 0.00281
P01500053: P01500001(S30I, I33L, N73P)-FLAG3-HIS6 (VHH, also called P0150053) VHH: EVQLVESGGGLVQPGGSLRLSCAASGSGFIGMLMGWYRQAPGKQRELVATVTSHGTTNYADSVKGRFTISRDPAKNTVYLQMNSLRPEDTAVYYCNAHFPGIYWGKGTLVTVSS = 0.000167

Proceed to the following item.
## Input Give its koff value. Item: P01500041: P01500001(D72P, N73G)-FLAG3-HIS6 (VHH, also called P0150041) VHH: EVQLVESGGGLVQPGGSLRLSCAASGSGFSGMIMGWYRQAPGKQRELVATVTSHGTTNYADSVKGRFTISRPGAKNTVYLQMNSLRPEDTAVYYCNAHFPGIYWGKGTLVTVSS
## Output 0.00014
